activity coefficient values, listed per item
protocol-description: activity coefficient (dimensionless); of the first substance listed, at infinite dilution; xn = mol fraction of the nth substance listed
run-parameters: 318.15 K; Liquid; Chromatography; x1 = 0

# count of solved cases: 5
[[record]]
compound = "FC(F)(F)C(Cl)Br (centres undefined) [1-bromo-1-chloro-2,2,2-trifluoroethane] + CCn1cc[n+](C)c1.CS(=O)(=O)[O-]"
reported_property = "activity coefficient"
measurement = 0.586

[[record]]
compound = "CCO [ethanol] + CCn1cc[n+](C)c1.CS(=O)(=O)[O-]"
reported_property = "activity coefficient"
measurement = 0.513

[[record]]
compound = "Cc1ccccc1 [toluene] + CCn1cc[n+](C)c1.CS(=O)(=O)[O-]"
reported_property = "activity coefficient"
measurement = 9.41

[[record]]
compound = "COC(C)(C)C [2-methoxy-2-methylpropane] + CCn1cc[n+](C)c1.CS(=O)(=O)[O-]"
reported_property = "activity coefficient"
measurement = 34.6

[[record]]
compound = "CC(C)=O [acetone] + CCn1cc[n+](C)c1.CS(=O)(=O)[O-]"
reported_property = "activity coefficient"
measurement = 2.46


For this compound ( C=CCCCCCC [oct-1-ene] + CCn1cc[n+](C)c1.CS(=O)(=O)[O-] ), measured activity coefficient is 374

For this compound ( ClCCl [dichloromethane] + CCn1cc[n+](C)c1.CS(=O)(=O)[O-] ), measured activity coefficient is 0.7

For this compound ( CCCCCCCC [octane] + CCn1cc[n+](C)c1.CS(=O)(=O)[O-] ), measured activity coefficient is 1020

For this compound ( CC#N [acetonitrile] + CCn1cc[n+](C)c1.CS(=O)(=O)[O-] ), measured activity coefficient is 0.862

---

activity coefficient values, listed per item
protocol-description: activity coefficient (dimensionless); of the first substance listed, at infinite dilution; xn = mol fraction of the nth substance listed
run-parameters: 323.15 K; Liquid; Chromatography; x1 = 0
Please state the value as a number alone, without comment.

[[record]]
compound = "Cc1cccc(C)c1 [1,3-dimethylbenzene] + CCn1cc[n+](C)c1.CS(=O)(=O)[O-]"
reported_property = "activity coefficient"
measurement = 20.5

[[record]]
compound = "C1CCCCC1 [cyclohexane] + CCn1cc[n+](C)c1.CS(=O)(=O)[O-]"
reported_property = "activity coefficient"
measurement = 115

[[record]]
compound = "CCCCCCC [heptane] + CCn1cc[n+](C)c1.CS(=O)(=O)[O-]"
reported_property = "activity coefficient"
measurement = 596


For this compound ( c1ccccc1 [benzene] + CCn1cc[n+](C)c1.CS(=O)(=O)[O-] ), measured activity coefficient is 4.5

For this compound ( ClCCl [dichloromethane] + CCn1cc[n+](C)c1.CS(=O)(=O)[O-] ), measured activity coefficient is 0.727

For this compound ( CCOC(C)=O [ethyl acetate] + CCn1cc[n+](C)c1.CS(=O)(=O)[O-] ), measured activity coefficient is 7.29

For this compound ( CCc1ccccc1 [ethylbenzene] + CCn1cc[n+](C)c1.CS(=O)(=O)[O-] ), measured activity coefficient is 18.8

For this compound ( CCC1CCCCC1 [ethylcyclohexane] + CCn1cc[n+](C)c1.CS(=O)(=O)[O-] ), measured activity coefficient is 326

For this compound ( Cc1ccccc1 [toluene] + CCn1cc[n+](C)c1.CS(=O)(=O)[O-] ), measured activity coefficient is 9.37

For this compound ( c1ccsc1 [thiophene] + CCn1cc[n+](C)c1.CS(=O)(=O)[O-] ), measured activity coefficient is 2.06

For this compound ( CCCO [propan-1-ol] + CCn1cc[n+](C)c1.CS(=O)(=O)[O-] ), measured activity coefficient is 0.789

For this compound ( COC(=O)OC [dimethyl carbonate] + CCn1cc[n+](C)c1.CS(=O)(=O)[O-] ), measured activity coefficient is 3.17

For this compound ( COC(C)=O [methyl ethanoate] + CCn1cc[n+](C)c1.CS(=O)(=O)[O-] ), measured activity coefficient is 3.6

For this compound ( CCCCCCCC [octane] + CCn1cc[n+](C)c1.CS(=O)(=O)[O-] ), measured activity coefficient is 949

For this compound ( FC(F)(F)C(Cl)Br (centres undefined) [1-bromo-1-chloro-2,2,2-trifluoroethane] + CCn1cc[n+](C)c1.CS(=O)(=O)[O-] ), measured activity coefficient is 0.632

For this compound ( CO [methanol] + CCn1cc[n+](C)c1.CS(=O)(=O)[O-] ), measured activity coefficient is 0.239

For this compound ( CC(C)O [propan-2-ol] + CCn1cc[n+](C)c1.CS(=O)(=O)[O-] ), measured activity coefficient is 0.958

For this compound ( CC(C)OC(C)C [diisopropyl ether] + CCn1cc[n+](C)c1.CS(=O)(=O)[O-] ), measured activity coefficient is 122

For this compound ( CC(C)=O [acetone] + CCn1cc[n+](C)c1.CS(=O)(=O)[O-] ), measured activity coefficient is 2.47
